- Target: human BPL (Homo sapiens, UniProt P50747)
- Construct: Vector pARA(hBPL-His6) was produced by cloning the full-length gene into Nco1/Hind111 treated pARA13; initiator Met (NcoI site) before Ala80 (N)
- Sequence (P50747 80-726 limits assumed): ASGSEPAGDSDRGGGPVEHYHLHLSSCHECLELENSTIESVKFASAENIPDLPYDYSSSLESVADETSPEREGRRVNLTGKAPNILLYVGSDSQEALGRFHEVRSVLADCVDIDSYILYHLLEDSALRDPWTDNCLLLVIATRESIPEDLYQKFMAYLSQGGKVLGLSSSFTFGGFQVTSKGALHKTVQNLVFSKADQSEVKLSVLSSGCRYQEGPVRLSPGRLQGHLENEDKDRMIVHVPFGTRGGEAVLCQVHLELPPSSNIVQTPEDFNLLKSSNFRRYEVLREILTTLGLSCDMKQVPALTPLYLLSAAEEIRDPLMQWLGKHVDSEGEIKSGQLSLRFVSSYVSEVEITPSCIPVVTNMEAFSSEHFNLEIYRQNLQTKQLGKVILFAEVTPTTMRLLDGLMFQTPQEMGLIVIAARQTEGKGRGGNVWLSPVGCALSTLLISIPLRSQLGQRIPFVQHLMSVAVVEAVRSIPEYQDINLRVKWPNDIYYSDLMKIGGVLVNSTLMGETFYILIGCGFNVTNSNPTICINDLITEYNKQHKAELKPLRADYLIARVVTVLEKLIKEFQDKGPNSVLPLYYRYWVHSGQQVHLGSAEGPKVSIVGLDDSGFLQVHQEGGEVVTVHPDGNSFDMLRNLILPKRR
- Method description: In vitro biotinylation assay of human BPL (Example 9)
- Method: One hundred ng of biotin domain was coated onto each well of Griener Lumitrac 600 White 96-well plates (Stennick Scientific) with >95% of the peptide binding. Coating was performed overnight at 4° C. in 100 uL of Tris Buffered saline (TBS, pH 7.5). […] Ten ul of either buffer alone or buffer containing inhibitor was added to the reaction mix and pre-equilibrated at 37° C. for 5 minutes. […] Quantitation was performed using a FLUOstar Galaxy plate reader (BMG Labtechnologies). […]
Measured attribute: IC50

> print(dat)
                                   compound  test.value
1  C=CCC(Cc1cc(OC)cc(OC)c1)(C(=O)O)C(=O)O [Compound 4]     > 50 µM
